Values from the supplement of paper PMC11061612

Recorded Bliss excess for the following compounds
Test system: SKG-IIIa (Cervical Carcinoma);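 further: after 72 h of two-drug dosing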
test-details: Bliss excess, mean over the matrix (fraction); higher = more synergy
property-label: Bliss excess

>  <compound>
Cc1c2c(nn1C)CSCc1cc(n(C)n1)CSc1cc(c3ccccc3c1)OCCCc1c(C(=O)O)n(C)c3c-2c(Cl)ccc13 [AZD5991] + C[C@@H]1COCCN1C2=NC(=NC(=C2)C3(CC3)[S@](=N)(=O)C)C4=C5C=CNC5=NC=C4 [AZD6738] (first compound max 1 µM, 7x7, partner max 10 µM)

>  <obs-value>
0.0106

$$$$
>  <compound>
Cn1cnc2c(F)c(Nc3ccc(Br)cc3Cl)c(C(=O)NOCCO)cc21 [Selumetinib] + C=CCn1c(=O)c2cnc(Nc3ccc(N4CCN(C)CC4)cc3)nc2n1-c1cccc(C(C)(C)O)n1 [AZD1775] (first compound max 10 µM, partner max 1 µM)

>  <obs-value>
-0.0733

$$$$
>  <compound>
N#Cc1cnc(Nc2cc(NC[C@H]3CNCCO3)c(C(F)(F)F)cn2)cn1 [SRA737] + O=c1[nH]cc(F)c(=O)[nH]1 [5-Fluorouracil] (first compound max 10 µM, 7x7, partner max 20 µM)

>  <obs-value>
0.0284

$$$$
>  <compound>
Cc1c2c(nn1C)CSCc1cc(n(C)n1)CSc1cc(c3ccccc3c1)OCCCc1c(C(=O)O)n(C)c3c-2c(Cl)ccc13 [AZD5991] + Nc1ccn([C@@H]2O[C@H](CO)[C@@H](O)C2(F)F)c(=O)n1 [Gemcitabine] (first compound max 1 µM, 7x7, partner max 0.3 µM)

>  <obs-value>
-0.0271

$$$$
>  <compound>
O=C(c1cc(Cc2n[nH]c(=O)c3ccccc23)ccc1F)N1CCN(C(=O)C2CC2)CC1 [Olaparib] + Cc1c2c(nn1C)CSCc1cc(n(C)n1)CSc1cc(c3ccccc3c1)OCCCc1c(C(=O)O)n(C)c3c-2c(Cl)ccc13 [AZD5991] (first compound max 10 µM, 7x7, partner max 1 µM)

>  <obs-value>
-0.0562

$$$$
>  <compound>
CC1(C)CCC(CN2CCN(c3ccc(C(=O)NS(=O)(=O)c4ccc(NCC5CCOCC5)c([N+](=O)[O-])c4)c(Oc4cnc5[nH]ccc5c4)c3)CC2)=C(c2ccc(Cl)cc2)C1 [Venetoclax] + C1CN(CCC1(C(=O)N[C@@H](CCO)C2=CC=C(C=C2)Cl)N)C3=NC=NC4=C3C=CN4 [Capivasertib] (first compound max 1 µM, 7x7, partner max 3 µM)

>  <obs-value>
-0.0207

$$$$
>  <compound>
COc1cccc(OCCCN)c1-c1cc(Nc2cnc(C#N)cn2)n[nH]1 [Prexasertib] + C[C@@H]1COCCN1C2=NC(=NC(=C2)C3(CC3)[S@](=N)(=O)C)C4=C5C=CNC5=NC=C4 [AZD6738] (first compound max 1 µM, 7x7, partner max 10 µM)

>  <obs-value>
0.0363

$$$$
>  <compound>
C[C@@H]1COCCN1c1cc(C2([S@](C)(=N)=O)CC2)nc(-c2ccnc3[nH]ccc23)n1 [AZD6738] + Nc1ccn([C@@H]2O[C@H](CO)[C@@H](O)C2(F)F)c(=O)n1 [Gemcitabine] (first compound max 10 µM, 7x7, partner max 0.3 µM)

>  <obs-value>
0.0657

$$$$
>  <compound>
CN(CCO)CC[C@H](CSc1ccccc1)Nc1ccc(S(=O)(=O)NC(=O)c2ccc(N3CCC([C@@H](O)c4ccccc4-c4ccc(Cl)cc4)CC3)cc2)cc1S(=O)(=O)C(F)(F)F [AZD4320] + CCN(CCO)CCCOc1ccc2c(Nc3cc(CC(=O)Nc4cccc(F)c4)[nH]n3)ncnc2c1 [AZD2811] (first compound max 1 µM, 7x7, partner max 1 µM)

>  <obs-value>
-0.015

$$$$
>  <compound>
COc1cccc(OCCCN)c1-c1cc(Nc2cnc(C#N)cn2)n[nH]1 [Prexasertib] + O=C(c1cc(Cc2n[nH]c(=O)c3ccccc23)ccc1F)N1CCN(C(=O)C2CC2)CC1 [Olaparib] (first compound max 1 µM, 7x7, partner max 10 µM)

>  <obs-value>
-0.0274

$$$$
